measurement target: Glucocorticoid receptor (Homo sapiens, UniProt P04150)
Sequence (P04150 whole entry): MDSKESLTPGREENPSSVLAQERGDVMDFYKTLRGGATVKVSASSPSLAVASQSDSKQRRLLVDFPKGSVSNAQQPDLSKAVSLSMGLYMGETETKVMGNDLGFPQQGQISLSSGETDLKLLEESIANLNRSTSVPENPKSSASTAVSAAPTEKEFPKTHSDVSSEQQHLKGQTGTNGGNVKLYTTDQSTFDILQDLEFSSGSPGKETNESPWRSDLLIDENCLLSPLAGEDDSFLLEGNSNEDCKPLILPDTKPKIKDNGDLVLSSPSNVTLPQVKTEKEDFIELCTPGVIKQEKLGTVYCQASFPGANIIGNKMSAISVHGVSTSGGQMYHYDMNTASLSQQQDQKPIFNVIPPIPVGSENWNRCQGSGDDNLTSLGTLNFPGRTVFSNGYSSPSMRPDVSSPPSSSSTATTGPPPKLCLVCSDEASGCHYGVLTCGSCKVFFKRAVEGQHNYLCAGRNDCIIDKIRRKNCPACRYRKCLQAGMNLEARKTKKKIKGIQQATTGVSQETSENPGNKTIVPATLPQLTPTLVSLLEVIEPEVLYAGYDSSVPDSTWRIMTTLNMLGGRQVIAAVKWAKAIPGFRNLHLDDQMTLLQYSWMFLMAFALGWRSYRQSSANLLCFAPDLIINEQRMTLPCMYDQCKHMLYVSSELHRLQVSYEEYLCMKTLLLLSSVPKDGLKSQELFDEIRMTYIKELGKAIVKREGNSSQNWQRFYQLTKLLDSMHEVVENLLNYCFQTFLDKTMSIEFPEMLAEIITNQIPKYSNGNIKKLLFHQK
protocol description: Transactivation activity at human glucocorticoid receptor in cells co-expressing GRE by luciferase reporter gene assay relative to control
test settings: read-out: Efficacy
Emax values, listed per item

smiles notation | Emax [%]
C[C@]12Cc3cnn(C4CCCCC4)c3C=C1CC[C@@H]1[C@@H]2[C@@H](O)C[C@@]2(C)[C@H]1CC[C@]2(O)C(=O)CSc1nc2ccccc2s1 | 78
C[C@]12Cc3cnn(C4CCCCC4)c3C=C1CC[C@@H]1[C@@H]2[C@@H](O)C[C@@]2(C)[C@H]1CC[C@]2(O)C(=O)CO | 96
C[C@]12Cc3cnn(C4CCCCC4)c3C=C1CC[C@@H]1[C@@H]2[C@@H](O)C[C@@]2(C)[C@H]1CC[C@]2(O)C(=O)CSc1ccccn1 | 87
C=CCn1c(SCC(=O)[C@@]2(O)CC[C@H]3[C@@H]4CCC5=Cc6c(cnn6-c6ccccc6)C[C@]5(C)[C@H]4[C@@H](O)C[C@@]32C)nc2ccccc21 | 86
C[C@]12CCC(=O)C=C1CC[C@@H]1[C@@H]2[C@@H](O)C[C@@]2(C)[C@H]1CC[C@]2(O)C(=O)CSc1nc2ncccc2s1 | 16
C[C@]12CCC(=O)C=C1CC[C@@H]1[C@@H]2[C@@H](O)C[C@@]2(C)[C@H]1CC[C@]2(O)C(=O)CSc1nc2ncccc2o1 | 37

* * *

measurement target: Glucocorticoid receptor (Rattus norvegicus, UniProt P06536)
Sequence (P06536 whole entry): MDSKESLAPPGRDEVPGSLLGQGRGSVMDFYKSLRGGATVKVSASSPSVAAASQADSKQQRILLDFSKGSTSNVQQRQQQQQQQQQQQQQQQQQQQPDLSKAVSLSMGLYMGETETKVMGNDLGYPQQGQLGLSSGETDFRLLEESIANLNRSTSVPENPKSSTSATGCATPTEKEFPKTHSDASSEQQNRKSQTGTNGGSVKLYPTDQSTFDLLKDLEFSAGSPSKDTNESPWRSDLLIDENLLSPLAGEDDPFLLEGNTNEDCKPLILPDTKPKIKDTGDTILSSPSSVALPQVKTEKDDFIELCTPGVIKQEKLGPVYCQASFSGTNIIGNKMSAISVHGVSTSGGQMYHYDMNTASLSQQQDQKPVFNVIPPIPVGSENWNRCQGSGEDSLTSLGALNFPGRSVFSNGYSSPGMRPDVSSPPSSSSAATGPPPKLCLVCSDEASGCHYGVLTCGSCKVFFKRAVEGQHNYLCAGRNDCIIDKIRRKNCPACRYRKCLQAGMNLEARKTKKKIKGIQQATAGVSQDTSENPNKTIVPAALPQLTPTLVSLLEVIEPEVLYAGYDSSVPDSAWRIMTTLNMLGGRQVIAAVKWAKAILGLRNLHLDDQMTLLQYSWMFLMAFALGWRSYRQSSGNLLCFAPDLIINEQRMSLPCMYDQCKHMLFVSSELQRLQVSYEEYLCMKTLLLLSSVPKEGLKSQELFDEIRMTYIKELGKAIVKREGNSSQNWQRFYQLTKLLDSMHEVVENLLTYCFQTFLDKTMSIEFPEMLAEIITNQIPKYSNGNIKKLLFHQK
protocol description: Transactivation activity at glucocorticoid receptor in rat H4II-E cells assessed as induction of tyrosine aminotransferase
measurement name: IC50

smiles notation | measurement target | result
Cn1c(SCC(=O)[C@@]2(O)CC[C@H]3[C@@H]4CCC5=Cc6c(cnn6-c6ccccc6)C[C@]5(C)[C@H]4[C@@H](O)C[C@@]32C)nc2ccccc21 | Glucocorticoid receptor (Rattus norvegicus, UniProt P06536) | 78 nM
C[C@]12Cc3cnn(-c4ccccc4)c3C=C1CC[C@@H]1[C@@H]2[C@@H](O)C[C@@]2(C)[C@H]1CC[C@]2(O)C(=O)CSc1ccc2ccccc2n1 | Glucocorticoid receptor (Rattus norvegicus, UniProt P06536) | 82.3 nM
Cn1c(OCC(=O)[C@@]2(O)CC[C@H]3[C@@H]4CCC5=Cc6c(cnn6-c6ccc(F)cc6)C[C@]5(C)[C@H]4[C@@H](O)C[C@@]32C)nc2ccccc21 | Glucocorticoid receptor (Rattus norvegicus, UniProt P06536) | 78 nM
